Reported EC50 values are given for each entry in this list.
- tested-on: PPARG (Homo sapiens)
- Construct: own inference from the column head
- test-name: Gal4 transactivation assay
- Type: cell-based
- experimental-parameters: Table 3
Express it in nM; write the number only.

Worked cases, answers included:
CC(C)CC(C)NC(=O)c1ccc2c(c1)ncn2Cc1ccc(Cl)cc1 (stereo not shown) [Cpd 31] :: 12200
CC[C@@H](NC(=O)c1ccc2c(c1)ncn2Cc1ccc(Cl)cc1)c1ccccc1 [Cpd 51] :: 3910
CC(C)c1cccc([C@@H](C)NC(=O)c2ccc3c(c2)ncn3Cc2ccc(Cl)cc2)c1 [Cpd 50] :: 44.1
COC(=O)[C@@H](NC(=O)c1ccc2c(c1)ncn2Cc1ccc(Cl)cc1)c1ccccc1 [Cpd 43] :: 752
CC[C@H](NC(=O)c1ccc2c(c1)ncn2Cc1ccc(Cl)cc1)c1ccccc1 [Cpd 52] :: 99.3

For PPARG (Homo sapiens), give the measured EC50 of the entry CC(C)CCC(C)NC(=O)c1ccc2c(c1)ncn2Cc1ccc(Cl)cc1 (stereo not shown) [Cpd 30]
636

Provide the reported EC50 (system: PPARG (Homo sapiens)) for COC[C@@H](NC(=O)c1ccc2c(c1)ncn2Cc1ccc(Cl)cc1)C(C)C [Cpd 39]
442

----------
- tested-on: PPARG (Homo sapiens, UniProt P37231)
- Construct: own inference from the column head
- Sequence (P37231 whole entry, species assumed): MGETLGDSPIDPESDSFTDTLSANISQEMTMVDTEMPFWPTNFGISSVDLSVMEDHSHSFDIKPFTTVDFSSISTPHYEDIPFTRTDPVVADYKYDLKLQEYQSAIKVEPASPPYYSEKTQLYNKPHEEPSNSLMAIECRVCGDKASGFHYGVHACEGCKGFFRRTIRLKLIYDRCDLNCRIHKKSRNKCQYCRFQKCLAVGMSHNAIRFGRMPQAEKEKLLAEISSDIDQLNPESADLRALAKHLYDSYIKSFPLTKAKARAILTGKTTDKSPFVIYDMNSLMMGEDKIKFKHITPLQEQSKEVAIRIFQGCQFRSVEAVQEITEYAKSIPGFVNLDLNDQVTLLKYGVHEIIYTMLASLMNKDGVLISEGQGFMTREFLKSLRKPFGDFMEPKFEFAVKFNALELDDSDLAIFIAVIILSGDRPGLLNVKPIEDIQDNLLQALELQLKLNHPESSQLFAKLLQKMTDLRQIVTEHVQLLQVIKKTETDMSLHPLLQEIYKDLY
- test-name: Gal4 transactivation assay
- Format: cell-based
- experimental-parameters: Table 3; 1 μM
Note to self: values exactly at 60% are true. So GL4 % act 1 μM at or above 60% is true, below is false.

Worked examples follow.
CC(C)CC(C)NC(=O)c1ccc2c(c1)ncn2Cc1ccc(Cl)cc1 (stereo not shown) :: false
CC[C@@H](NC(=O)c1ccc2c(c1)ncn2Cc1ccc(Cl)cc1)c1ccccc1 :: true
CC[C@H](NC(=O)c1ccc2c(c1)ncn2Cc1ccc(Cl)cc1)c1ccccc1 :: false

Would you say CC(C)c1cccc([C@@H](C)NC(=O)c2ccc3c(c2)ncn3Cc2ccc(Cl)cc2)c1 shows GL4 % act 1 μM at minimum 60%?
false

Answer whether GL4 % act 1 μM of COC(=O)[C@@H](NC(=O)c1ccc2c(c1)ncn2Cc1ccc(Cl)cc1)c1ccccc1 is greater than or equal to 60%.
false

hey, is GL4 % act 1 μM for this one >= 60%? CC(C)CCC(C)NC(=O)c1ccc2c(c1)ncn2Cc1ccc(Cl)cc1 (stereo not shown)
true

Hi, just wondering whether COC[C@@H](NC(=O)c1ccc2c(c1)ncn2Cc1ccc(Cl)cc1)C(C)C shows GL4 % act 1 μM of 60% or higher.
true

----------
- tested-on: GST-PPARG-LBD (Homo sapiens, UniProt P37231)
- Construct: A mixture of 5 nM GST-PPARG-LBD; purchased Invitrogen
- Sequence (P37231 238-503 limits assumed): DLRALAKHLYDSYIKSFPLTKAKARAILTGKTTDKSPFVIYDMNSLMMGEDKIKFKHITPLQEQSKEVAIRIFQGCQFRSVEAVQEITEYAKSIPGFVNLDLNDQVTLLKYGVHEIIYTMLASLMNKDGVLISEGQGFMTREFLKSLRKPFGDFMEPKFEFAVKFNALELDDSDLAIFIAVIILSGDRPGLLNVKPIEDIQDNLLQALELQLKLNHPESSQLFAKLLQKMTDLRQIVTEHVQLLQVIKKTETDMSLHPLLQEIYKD
- test-name: Lanthascreen PPARG competitive binding assay (Invitrogen)
- experimental-parameters: Table 3; read-out: IC50 (nM) Lantha
recorded-endpoint: IC50 (nM)
I only need the number, in nM, no unit after it.

The following compounds have reported results that may help.
CC[C@@H](NC(=O)c1ccc2c(c1)ncn2Cc1ccc(Cl)cc1)c1ccccc1 :: 1050
Cc1nc2cc(C(=O)N[C@@H](C)c3cccc(C(C)C)c3)ccc2n1Cc1cccc(O[C@@H](C)C(=O)O)c1 :: 2420
CC(C)CC(C)NC(=O)c1ccc2c(c1)ncn2Cc1ccc(Cl)cc1 (stereo not shown) :: 31.8
O=C(NCC1CC1)c1ccc2c(c1)ncn2Cc1ccc(Cl)cc1 :: 18300
CC(C)CC(C)NC(=O)c1ccc2c(c1)ncn2[C@H](C)c1ccc(Cl)cc1 (stereo partly shown) :: 8400
CC[C@H](NC(=O)c1ccc2c(c1)ncn2Cc1ccc(Cl)cc1)c1ccccc1 :: 403
CCCc1nc2cc(C(=O)N[C@@H](C)c3cccc(C(C)C)c3)ccc2n1Cc1cccc(O[C@@H](C)C(=O)O)c1 :: 2410
C[C@@H](CO)NC(=O)c1ccc2c(c1)ncn2Cc1ccc(Cl)cc1 :: 24400
COC(=O)[C@H](C)NC(=O)c1ccc2c(c1)ncn2Cc1ccc(Cl)cc1 :: 2160
COC(=O)[C@@H](NC(=O)c1ccc2c(c1)ncn2Cc1ccc(Cl)cc1)c1ccccc1 :: 237

Retrieve IC50 measured for CCc1nc2cc(C(=O)N[C@@H](C)c3cccc(C(C)C)c3)ccc2n1Cc1cccc(O[C@@H](C)C(=O)O)c1 and print it.
2030

Note down IC50 recorded for CC(C)CCNC(=O)c1ccc2c(c1)ncn2Cc1ccc(Cl)cc1
1090

Answer with reported IC50 of O=C(NCC1CCC1)c1ccc2c(c1)ncn2Cc1ccc(Cl)cc1
7950

Using the record for CC(C)c1cccc([C@H](C)NC(=O)c2ccc3c(c2)ncn3[C@H](C)c2ccc(Cl)cc2)c1 , state its measured IC50.
11000

# return recorded IC50 for input CC(C)[C@@H](CO)NC(=O)c1ccc2c(c1)ncn2Cc1ccc(Cl)cc1
3250

Hey, just so you know, these numbers are from patent US20140249196A1.
